Collected IC50 values appear next to each entry.
- EXPERIMENTAL TARGET: Neuronal acetylcholine receptor; alpha4/beta2 (Homo sapiens, UniProt P17787+P43681)
- Sequence (P17787 whole entry): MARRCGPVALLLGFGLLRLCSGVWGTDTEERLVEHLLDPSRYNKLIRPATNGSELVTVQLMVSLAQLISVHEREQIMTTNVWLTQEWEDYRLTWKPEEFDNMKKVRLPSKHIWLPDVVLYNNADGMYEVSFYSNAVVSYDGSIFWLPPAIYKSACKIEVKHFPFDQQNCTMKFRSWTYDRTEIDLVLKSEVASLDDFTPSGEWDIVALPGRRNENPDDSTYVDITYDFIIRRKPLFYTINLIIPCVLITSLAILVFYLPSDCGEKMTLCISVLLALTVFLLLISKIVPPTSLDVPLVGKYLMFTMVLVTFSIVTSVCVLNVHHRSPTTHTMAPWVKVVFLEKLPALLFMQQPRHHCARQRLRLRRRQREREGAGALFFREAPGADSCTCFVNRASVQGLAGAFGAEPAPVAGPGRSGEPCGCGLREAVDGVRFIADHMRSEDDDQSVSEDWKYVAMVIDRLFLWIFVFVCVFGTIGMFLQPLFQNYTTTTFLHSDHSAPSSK
- Sequence (P43681 whole entry): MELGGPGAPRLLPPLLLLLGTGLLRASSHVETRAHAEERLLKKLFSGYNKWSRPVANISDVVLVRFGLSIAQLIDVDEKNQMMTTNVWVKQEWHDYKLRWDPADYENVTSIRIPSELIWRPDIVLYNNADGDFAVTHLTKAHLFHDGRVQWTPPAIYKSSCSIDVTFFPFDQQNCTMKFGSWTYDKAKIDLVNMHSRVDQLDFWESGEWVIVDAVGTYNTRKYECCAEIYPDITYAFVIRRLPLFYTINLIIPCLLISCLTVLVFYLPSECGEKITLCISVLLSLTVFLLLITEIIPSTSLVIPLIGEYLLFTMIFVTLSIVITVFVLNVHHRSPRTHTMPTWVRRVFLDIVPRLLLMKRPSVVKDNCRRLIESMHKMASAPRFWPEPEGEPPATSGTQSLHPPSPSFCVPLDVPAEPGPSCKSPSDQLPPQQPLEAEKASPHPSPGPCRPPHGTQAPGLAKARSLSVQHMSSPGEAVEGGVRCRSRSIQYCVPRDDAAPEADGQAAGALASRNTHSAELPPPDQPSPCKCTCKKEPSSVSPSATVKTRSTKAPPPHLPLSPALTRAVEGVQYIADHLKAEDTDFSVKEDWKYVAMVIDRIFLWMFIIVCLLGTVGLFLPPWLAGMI
- PROTOCOL TEXT: Antagonist activity at (alpha4beta2)2beta2 nAChR (unknown origin) expressed in Xenopus oocytes assessed as inhibition of acetylcholine-induced current after 2 mins by two-electrode voltage clamp assay
- Assay type: cell-based, Oocyte
REPORTED PROPERTY: IC50 (µM)

{"COMPOUND SMILES": "CN1CCC[C@H]1COC(=O)c1ccccc1", "REPORTED PROPERTY": "IC50", "UNITS": "µM", "QUANTITATIVE READOUT": 2.5}
{"COMPOUND SMILES": "CN1CCC[C@H]1COC(=O)c1ccc(OCc2ccccc2)cc1", "REPORTED PROPERTY": "IC50", "UNITS": "µM", "QUANTITATIVE READOUT": 25.8}
{"COMPOUND SMILES": "CN1CCC[C@H]1COC(=O)c1cccc(N)c1", "REPORTED PROPERTY": "IC50", "UNITS": "µM", "QUANTITATIVE READOUT": 4.3}
{"COMPOUND SMILES": "CN1CCC[C@H]1COC(=O)c1ccc(Cl)cc1", "REPORTED PROPERTY": "IC50", "UNITS": "µM", "QUANTITATIVE READOUT": 3.6}

###

- EXPERIMENTAL TARGET: Neuronal acetylcholine receptor subunit alpha-7 (Homo sapiens, UniProt P36544)
- Sequence (P36544 whole entry): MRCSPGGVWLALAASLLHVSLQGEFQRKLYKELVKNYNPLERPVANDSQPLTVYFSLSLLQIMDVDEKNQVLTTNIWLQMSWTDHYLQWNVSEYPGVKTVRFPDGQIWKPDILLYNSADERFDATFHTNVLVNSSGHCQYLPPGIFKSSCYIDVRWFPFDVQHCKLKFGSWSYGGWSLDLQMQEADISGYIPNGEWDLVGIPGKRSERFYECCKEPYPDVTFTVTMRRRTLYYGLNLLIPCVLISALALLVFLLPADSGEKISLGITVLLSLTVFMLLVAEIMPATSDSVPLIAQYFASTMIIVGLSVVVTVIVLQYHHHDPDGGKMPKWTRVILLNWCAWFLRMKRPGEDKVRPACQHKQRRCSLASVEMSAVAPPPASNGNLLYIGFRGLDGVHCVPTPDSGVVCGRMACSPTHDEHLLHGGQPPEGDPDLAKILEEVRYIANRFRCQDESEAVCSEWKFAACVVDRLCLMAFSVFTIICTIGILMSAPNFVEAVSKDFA
- PROTOCOL TEXT: Displacement of [125I]alpha-bungarotoxin from human alpha7 nAChR overexpressed in human SH-SY5Y cells after 120 mins by liquid scintillation spectrometric analysis
pIC50: −log10 of the molar value.
Outcome label depends on pIC50 relative to 5: at/above gives met, below gives not met.

{"COMPOUND SMILES": "CN1CCC[C@H]1COC(=O)c1ccc(Br)cc1", "CAT": "not met"}
{"COMPOUND SMILES": "CN1CCC[C@H]1COC(=O)c1cnc2ccccc2c1", "CAT": "not met"}
{"COMPOUND SMILES": "CN1CCC[C@H]1COC(=O)c1ccc(Cl)nc1", "CAT": "not met"}
{"COMPOUND SMILES": "CN1CCC[C@H]1COC(=O)c1ccc(OCc2ccccc2)cc1", "CAT": "met"}
{"COMPOUND SMILES": "CN1CCC[C@H]1COC(=O)c1ccc(OCc2ccccc2)nc1", "CAT": "not met"}
{"COMPOUND SMILES": "CN1CCC[C@H]1COC(=O)c1cccc([N+](=O)[O-])c1", "CAT": "not met"}
